Sourced from patent US11970494B2

Provide the recorded pKd for the entries that follow.
Molecular target: JAK2 (JH1 domain-catalytic, Y1007F,Y1008F) kinase (Homo sapiens, UniProt O60674, Y1007F/Y1008F)
Construct: made in house; host or cells: transiently transfected HEK293 cells
Sequence (O60674 849-1124 Y1007F/Y1008F limits assumed): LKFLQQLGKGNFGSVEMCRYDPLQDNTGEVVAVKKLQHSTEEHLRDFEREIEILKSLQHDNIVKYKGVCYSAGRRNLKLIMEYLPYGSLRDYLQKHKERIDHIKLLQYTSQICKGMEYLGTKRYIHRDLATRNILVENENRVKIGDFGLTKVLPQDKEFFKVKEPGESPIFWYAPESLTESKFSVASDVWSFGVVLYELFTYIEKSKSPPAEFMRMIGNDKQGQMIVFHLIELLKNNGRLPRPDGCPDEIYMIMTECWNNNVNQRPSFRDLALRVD
Assay: JAK2 Binding Assay (JAK2 JH1 Domain Binding Assay)
Details: JAK2 JH1 domain binding, qPCR detection; read-out: JAK2 Kd
pKd: −log10 of the molar value.

Data request: What measured pKd goes with CC(=O)Nc1cc(Oc2cnc3nc(Nc4cc(O[C@H]5CCN(C)C5)cc(C(F)(F)F)c4)n(C)c3c2Cl)ccn1 [Example I-99] ?
Data returned: > 8.00

Data request: What measured pKd goes with CN1CCn2nc(Nc3nc4ncc(Oc5ccnc(NC(=O)O[C@@H]6CCOC6)c5)c(Cl)c4n3C)cc2C1=O [Example I-53] ?
Data returned: < 5.30

Data request: What measured pKd goes with CC(=O)Nc1cc(Oc2cnc3nc(Nc4cc(OC5CN(C)C5)cc(C(F)(F)F)c4)n(C)c3c2Cl)ccn1 [Example I-103] ?
Data returned: > 8.00

Data request: What measured pKd goes with Cn1cc(C(F)(F)F)cc(Nc2nc3ncc(Oc4ccnc(NC(=O)CO)c4)c(Cl)c3n2C)c1=O [Example I-86] ?
Data returned: > 8.00
